Documented TGI across a set of compounds
Test system: MOLT-4 leukemia
protocol description: NCI tumour cell line growth inhibition, 48 h
measurement kind: TGI

>>> result("C[S+](C)CC(=O)c1ccc2c(c1)Sc1ccccc1O2")
"> 94.4 µM"
>>> result("COC(OC)C1OC(CO)C(n2cc(F)c(=O)[nH]c2=O)C1O (stereo not given)")
"> 100 µM"
>>> result("CCOC(=O)/C(C[C@H]1OC(C)(C)O[C@@H]1[C@H]1COC(C)(C)O1)=N/O")
"> 100 µM"
>>> result("O=C(CNc1ncco1)Nc1ccc(S(=O)(=O)c2ccc(NC(=O)CNc3ncco3)cc2)cc1")
"8.45 µM"
>>> result("c1cc[c]([Sn]([S]c2cccc3cccnc23)([S]c2cccc3cccnc23)[c]2ccccc2)cc1")
"0.542 µM"
>>> result("COc1cc([C@@H]2c3cc4c(cc3[C@@H](c3c(O)cc(O)c5c3O[C@H](c3ccc(O)c(O)c3)[C@H](OC(=O)c3cc(O)c(O)c(O)c3)C5)[C@H]3COC(=O)[C@H]23)OCO4)cc(OC)c1OC")
"> 100 µM"
>>> result("Cc1cccc2c1O/C(=C\\c1ccc([N+](=O)[O-])o1)C2=O")
"5.7 µM"
>>> result("COc1ccc(C2c3cc4c(cc3OC(O)(CO)C2C(=O)O)OCO4)cc1 (stereo not given) (tested in a mixture with another compound)")
"57.8 µM"
>>> result("CCOC(=O)c1sc2nc(-c3ccccc3)nn2c1CBr")
"1.18 µM"
>>> result("Cc1cnoc1NS(=O)(=O)c1ccc(Nc2nnc(/C=C/c3c(O)ccc4ccccc34)c(=O)n2N)cc1")
"> 100 µM"
>>> result("O=S(=O)(NCCNc1cc(-c2cn(-c3ccccc3)nc2-c2cccc(O)c2)ccn1)c1ccc(Cl)cc1")
"7.37 µM"
>>> result("Cn1c2ccccc2c2nc3ccccc3c(Cl)c21")
"> 100 µM"
>>> result("CCCCCCCCCCCCCCCC(=O)OC(COC(C)=O)CO[P+](=O)O (stereo not given)")
"80.7 µM"
>>> result("CC1C=C[C@H](Sc2ccccc2)CC[C@@]1(C)O (stereo not given in full)")
"> 100 µM"
>>> result("COc1ccc(C(=O)N(C(=O)N2CCN(c3ccccc3)CC2)S(=O)(=O)c2ccccc2)cc1")
"46.5 µM"
>>> result("O=C(O)c1cc(Cc2ccc(O)c(C(=O)O)c2)ccc1O (tested in a mixture with another compound)")
"> 100 µM"
>>> result("CC(=O)NC(CCCNC(=O)NCCCl)C(=O)NCc1ccccc1 (stereo not given)")
"> 100 µM"
>>> result("COC(=O)c1nc(-c2nc(CCNC(=O)OC(C)(C)C)sc2Cl)sc1Cl")
"> 100 µM"
>>> result("Nc1cc(N2CCOCC2)nc(=O)n1-c1ccc(Cl)cc1")
"> 100 µM"
>>> result("O=C(NNS(=O)(=O)c1ccc(F)cc1)c1cccnc1Nc1ccc(Cl)cc1Cl")
"> 100 µM"
>>> result("COC(=O)NC(=O)c1cn(CCCOC(=O)CCCCCCCCC(=O)OCCCn2cc(C(=O)NC(=O)OC)c(=O)[nH]c2=O)c(=O)[nH]c1=O")
"> 100 µM"
>>> result("COc1cc2c(cc1C)NC(=O)/C2=C/c1c(Cl)n(-c2ccccc2)c2ccccc12")
"33.8 µM"
>>> result("Cc1n[nH]c(=O)n1/N=C/c1ccncc1")
"> 100 µM"
>>> result("COc1ccc(NS(=O)c2ccccc2OC)cc1 (stereo not given)")
"> 100 µM"
>>> result("O=C(O)C1(Cc2ccc3c(c2)CCC3)Cc2ccccc2C1=O (stereo not given)")
"> 100 µM"
>>> result("COc1ccc2c(c1)cn1c3ccc(O)cc3[nH]c(=O)c21")
"6.95 µM"
>>> result("CCCCCC(O)(CCCCC)CCCCCCCCC1=C(O)c2[nH]c(=O)ccc2C(=O)C1=O")
"55.5 µM"
>>> result("O=C1c2ccn(CCCCN3CCCCC3)c2C(=O)c2c1c(O)c1ccccc1c2O")
"> 100 µM"
>>> result("CCCCCOC(=O)c1cc2cc(CCl)ccc2oc1=O")
"> 81.7 µM"
>>> result("C/C(N=Nc1nc2ccccc2[nH]1)=C1/C=CC=CN1O")
"> 100 µM"
>>> result("COc1ccc(C(=O)COc2cccc(/C=C3\\CSc4ccc(Cl)cc4C3=O)c2)cc1")
"5.53 µM"
>>> result("O=C(O)C(O)C(O)C(O)C(=O)CO (stereo not given)")
"> 100 µM"
>>> result("COc1ccc(NC(=O)CC(=O)N/N=C/c2ccc(N(CCC#N)S(=O)(=O)c3ccccc3)cc2)cc1")
"> 100 µM"
>>> result("CS(=O)(=O)CCn1c(=O)c(Oc2ccc(F)cc2F)cc2cnc(NC3CCOCC3)nc21")
"> 25 µM"
>>> result("CSc1nc2c(c(O)c(C)c(=O)n2C2OCC(OC(C)=O)C(OC(C)=O)C2OC(C)=O)c(=O)n1C (stereo not given)")
"> 100 µM"
>>> result("COC(=O)C1=C(O)CCCC(CCC(C)=O)=C1")
"> 100 µM"
>>> result("CC(=O)N/N=C1/CC[C@@]2(C)C(=CC[C@H]3C4CCC(C(C)CCCC(C)C)[C@@]4(C)CCC32)C1(C)C (stereo not given in full)")
"34.1 µM"
>>> result("O=[N+]([O-])/C=C\\c1c[nH]c2ccc(OCc3ccccc3)cc12")
"> 100 µM"
>>> result("NC(=S)N/N=C\\c1nccc2c(N)cccc12")
"> 100 µM"
>>> result("O=S(=O)(NC1OCCCC1I)c1ccccc1 (stereo not given)")
"> 100 µM"

----------
Tested on: UACC-62 melanoma
protocol description: NCI tumour cell line growth inhibition, 48 h
Documented GI50 across a set of molecules
measurement kind: GI50

>>> result("O=C(Nc1cccc(O)c1)c1cccc(NC2=C(Cl)C(=O)N(Cc3ccccc3)C2=O)c1")
"14.6 µM"
>>> result("O=C(Nc1ccc(Cl)cc1)c1cc(S(=O)(=O)Nc2nnc(-c3ccccc3)c(-c3ccccc3)n2)c(SCc2ccccc2)cc1Cl")
"18.2 µM"
>>> result("COc1ccc(-c2nnc(N3CCN(C(=O)CN4CCN(c5ccc(Cl)cc5)CC4)CC3)nc2-c2ccc(OC)cc2)cc1")
"31.5 µM"
>>> result("O=C(NNS(=O)(=O)c1ccc(F)cc1)c1cccnc1Nc1ccc(Cl)cc1Cl")
"46 µM"

----------
Tested on: SK-MEL-5 melanoma
protocol description: NCI tumour cell line growth inhibition, 48 h; in the data active means GI50 below about 0.43 µM; inactive means the rest
Possible outcomes: y (active), n (inactive)

>>> qualitative_label("NC(=S)N/N=C\\c1nccc2c(N)cccc12")
"y"
>>> qualitative_label("N[C@@H]1CCCC[C@@H]1N.O=C([O-])CN(CP(=O)([O-])[O-])CP(=O)([O-])[O-].[Pt+2]")
"n"
>>> qualitative_label("COc1ccc2c(c1)cn1c3ccc(O)cc3[nH]c(=O)c21")
"y"
>>> qualitative_label("Oc1c(I)cc(-c2nc3ccccc3s2)cc1CN(Cc1ccccn1)Cc1ccccn1")
"y"
>>> qualitative_label("CCCCCCCCCCCCCC(=O)C(C)N (stereo not drawn)")
"n"
>>> qualitative_label("[C-]#[N+][C@]12C(=O)[C@H](CCC1(C)C)C(C)(C)[C@H]1C(=O)N(C)c3cccc2c31")
"n"
>>> qualitative_label("O=C(CNc1ncco1)Nc1ccc(S(=O)(=O)c2ccc(NC(=O)CNc3ncco3)cc2)cc1")
"n"
>>> qualitative_label("O=C(Nc1cccc(O)c1)c1cccc(NC2=C(Cl)C(=O)N(Cc3ccccc3)C2=O)c1")
"n"
>>> qualitative_label("Cc1cc(C)n(C(=O)c2nn(-c3ccc(Cl)cc3)cc2O)n1")
"n"
>>> qualitative_label("CNC(=O)OC1C(O[C@H]2C[C@H]3[C@@H]4CC=C5C[C@@H](O)CC[C@]5(C)[C@H]4CC[C@]3(C)[C@H]2[C@H](C)C(=O)CCC(C)C)OCC(O)C1OC1OCC(O)C(O)C1OC(=O)c1ccc(OC)cc1 (stereo partly drawn)")
"y"
>>> qualitative_label("c1cc[c]([Sn]([S]c2cccc3cccnc23)([S]c2cccc3cccnc23)[c]2ccccc2)cc1")
"y"
>>> qualitative_label("C[C@@H](Oc1ccc2[nH]nc(/C=C/c3cnn(CCO)c3)c2c1)c1c(Cl)cncc1Cl")
"n"
>>> qualitative_label("COc1cc(-c2cc(/C=C3\\C(=O)Nc4ccccc43)[nH]n2)cc(OC)c1OC")
"n"

----------
Tested on: M14 melanoma
protocol description: NCI tumour cell line growth inhibition, 48 h
Where a SMILES comes first, the peptide text is derived from it.
measurement kind: TGI

>>> result("Cc1cc(=O)[nH]c(/N=C(\\N)Nc2ccc(Cl)cc2)n1")
"> 100 µM"
>>> result("COc1cccc(NC(=O)CC(=O)N2N=C(C)C(N=Nc3ccc(S(=O)(=O)CCOS(=O)(=O)O)cc3)C2=O)c1 (stereo not drawn)")
"20.2 µM"
>>> result("CCc1cccc(CC)c1NC(=O)C1=C(C)NC(C)=C(C(=O)Nc2c(CC)cccc2CC)C1c1ccc2c(c1)OCO2")
"31.1 µM"
>>> result("O[C@H]1[C@H]2[C@H](O)C[C@H](CCOCc3ccccc3)CN2C[C@H]1O")
"> 100 µM"
>>> result("CCOC(=O)CCC(NC(=O)c1ccc(Nc2cnc3ccc(C(F)(F)F)cc3n2)cc1)C(=O)OCC (stereo not drawn)")
"> 100 µM"
>>> result("CC(=O)c1cc2c(c3ccsc13)-c1ccccc1CC2")
"89.8 µM"
>>> result("O=C1CC2(CCC(O)(c3cccs3)C(C(=O)c3cccs3)C2)C(=O)c2ccccc2N1 (stereo not drawn)")
"> 100 µM"
>>> result("COc1ccc(C(=O)C(C(=O)C(=O)Nc2nccs2)c2ccc(OC)cc2)cc1 (stereo not drawn)")
"> 100 µM"
>>> result("Cc1[nH]nc2c1C(=O)C=C(N(CCO)c1ccccc1)C2=O")
"> 100 µM"
>>> result("CN(NC(=O)/C(=C\\c1ccco1)NC(=O)c1ccccc1)c1cn[nH]c(=O)c1Cl")
"> 100 µM"
>>> result("CCC(C)C(NC(=O)C1CCCN1C(=O)C(CC(C)C)NC(=O)C(CC(C)C)NC(=O)C(N)CC(C)C)C(=O)NC(C(=O)NCC(=O)NC(CC(N)=O)C(=O)NC(CC(C)C)C(=O)NC(CC(C)C)C(=O)NC(CC(C)C)C(N)=O)C(C)C (stereo not drawn) (H-LLLPIVGNLLL-NH2; configuration not given here)")
"> 50 µM"
>>> result("Cc1ccc(C2C3=C(N=c4s/c(=C/c5ccc(Br)cc5)c(=O)n42)c2ccc4ccccc4c2OCC3)cc1 (stereo not drawn)")
"> 100 µM"
>>> result("CCO/C(O)=C(/C(=N)N1CCCC1)C(=O)Nc1ccc(F)cc1")
"> 100 µM"
>>> result("Cc1cccc(C)c1NC(=O)CCC(=O)NC(N)=S")
"> 100 µM"
>>> result("O=C(O)c1cc(Cc2ccc(O)c(C(=O)O)c2)ccc1O (tested in a mixture with another compound)")
"21.8 µM"
>>> result("O=C1/C(=C\\c2ccc(F)cc2)CCOc2c1ccc1ccccc21")
"82.7 µM"
>>> result("COc1cc(C)c(C)c(OC(=O)c2c(C)c(C)c(OC)c(C)c2OC)c1C")
"33.9 µM"
>>> result("CCOC(=O)C1=COC(C)(c2ccccc2)CC1=O (stereo not drawn)")
"> 100 µM"
